Source of measurements: patent US9260425B2

system: BaF3 PIM1 cells; test: In vitro cell proliferation potency assay, BaF3 line transfected with PIM-1 (Cell Titer Glo); format: cell-based, murine; details: Mus musculus, incubated overnight, read-out: Prolif. BaF3 PIM-1 (IC50)
readout-kind: IC50 (µM)

Would you please look over these solved cases?
# given-smiles, readout-kind, units-symbol, numeric-value
measured = [
    ("Cc1ccc(-c2n[nH]c3cnc(-c4cccnc4)cc23)nc1N1CC[C@@H](N)C1", "IC50", "µM", 0.0628),
    ("OCCN1CCCN(c2cccc(-c3n[nH]c4cnc(-c5cccnc5)cc34)n2)CC1", "IC50", "µM", 0.709),
    ("CCn1cc(-c2cc3c(-c4cccc(N5CCNCC5)n4)n[nH]c3cn2)cn1", "IC50", "µM", 0.0766),
    ("N[C@@H]1CCCN(c2cccc(-c3n[nH]c4cnc(-c5cccnc5)cc34)n2)CC1", "IC50", "µM", 0.518),
    ("N[C@H]1CCCN(c2cccc(-c3n[nH]c4cnc(-c5cncs5)cc34)n2)C1", "IC50", "µM", 0.681),
]

I. COCCn1cc(-c2cc3c(-c4cccc(N5CCNCC5)n4)n[nH]c3cn2)cn1
II. NC[C@H]1CCN(c2cccc(-c3n[nH]c4cnc(-c5cccnc5)cc34)n2)C1
III. NC1CCN(c2cccc(-c3n[nH]c4cnc(-c5cccnc5)cc34)n2)CC1
IV. CCn1cc(-c2cc3c(-c4cccc(N5CCC[C@H](NC)C5)n4)n[nH]c3cn2)cn1
Exam item: list the entries in increasing order of IC50. # list labels per requested ordering
IV, III, I, II
(IV: 0.0637 µM, III: 0.13 µM, I: 0.274 µM, II: 0.478 µM)
